# protocol_notes: Growth inhibition of human WM266.4 cells
# Type: functional, cell-based
# experimental_setup: WM 266-4
assay_metric: IC50 (µM)
Give your result in µM as a bare value.

Query block: IC50 lookup needed for `CCOC(=O)c1cnn2c(-c3cccc(NC(=O)c4cccc(C(F)(F)F)c4)c3)ccnc12` , thanks.
Result block: 6.2

###

# tested_target: RAC-alpha serine/threonine-protein kinase (Homo sapiens)
# Sequence (P31749 whole entry): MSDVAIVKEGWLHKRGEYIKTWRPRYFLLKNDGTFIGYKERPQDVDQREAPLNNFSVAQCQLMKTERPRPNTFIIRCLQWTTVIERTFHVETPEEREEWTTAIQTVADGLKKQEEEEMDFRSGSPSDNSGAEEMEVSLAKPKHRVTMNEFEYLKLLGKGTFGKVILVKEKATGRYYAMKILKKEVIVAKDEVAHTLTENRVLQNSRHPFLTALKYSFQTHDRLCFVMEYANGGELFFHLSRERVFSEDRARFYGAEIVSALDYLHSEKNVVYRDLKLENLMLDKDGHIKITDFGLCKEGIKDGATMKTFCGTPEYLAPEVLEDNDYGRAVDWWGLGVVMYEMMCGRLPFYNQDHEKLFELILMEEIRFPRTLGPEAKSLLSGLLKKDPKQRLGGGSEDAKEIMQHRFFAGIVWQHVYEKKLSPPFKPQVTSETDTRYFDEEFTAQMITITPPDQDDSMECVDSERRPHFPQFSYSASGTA
assay_metric: IC50

Query block: Find IC50 (RAC-alpha serine/threonine-protein kinase (Homo sapiens)) for the entry `CCOC(=O)c1cnn2c(-c3cccc(NC(=O)c4cccc(C(F)(F)F)c4)c3)ccnc12`
Result block: > 10 µM

###

# tested_target: Phosphatidylinositol 4,5-bisphosphate 3-kinase catalytic subunit alpha isoform (Homo sapiens, UniProt P42336)
# Sequence (P42336 whole entry, canonical isoform): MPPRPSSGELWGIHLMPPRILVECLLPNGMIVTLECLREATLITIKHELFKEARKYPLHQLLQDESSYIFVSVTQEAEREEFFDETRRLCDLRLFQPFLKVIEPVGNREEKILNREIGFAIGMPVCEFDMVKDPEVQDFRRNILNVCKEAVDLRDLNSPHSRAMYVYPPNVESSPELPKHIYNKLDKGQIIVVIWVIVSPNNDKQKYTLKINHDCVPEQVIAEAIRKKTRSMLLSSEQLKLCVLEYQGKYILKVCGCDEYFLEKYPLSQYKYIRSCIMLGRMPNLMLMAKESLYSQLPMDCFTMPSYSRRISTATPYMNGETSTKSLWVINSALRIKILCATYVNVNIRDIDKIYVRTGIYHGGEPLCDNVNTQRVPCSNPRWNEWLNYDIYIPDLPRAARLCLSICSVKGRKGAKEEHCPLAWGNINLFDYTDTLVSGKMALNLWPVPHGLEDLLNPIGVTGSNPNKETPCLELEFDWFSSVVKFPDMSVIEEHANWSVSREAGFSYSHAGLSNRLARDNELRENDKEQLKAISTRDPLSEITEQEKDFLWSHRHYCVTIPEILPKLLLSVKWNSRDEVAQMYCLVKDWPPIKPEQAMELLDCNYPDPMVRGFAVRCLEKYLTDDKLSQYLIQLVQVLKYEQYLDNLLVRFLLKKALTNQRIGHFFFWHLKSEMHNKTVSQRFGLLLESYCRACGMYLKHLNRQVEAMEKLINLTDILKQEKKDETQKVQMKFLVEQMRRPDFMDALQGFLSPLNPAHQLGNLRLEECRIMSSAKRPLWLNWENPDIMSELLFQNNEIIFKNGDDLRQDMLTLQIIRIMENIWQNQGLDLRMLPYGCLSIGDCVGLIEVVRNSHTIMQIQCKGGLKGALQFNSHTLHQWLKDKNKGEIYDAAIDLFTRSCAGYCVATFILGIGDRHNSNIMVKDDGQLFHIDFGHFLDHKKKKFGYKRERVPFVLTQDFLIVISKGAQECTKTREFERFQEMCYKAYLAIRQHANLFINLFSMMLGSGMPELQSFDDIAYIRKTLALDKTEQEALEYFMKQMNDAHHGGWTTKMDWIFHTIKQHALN
# protocol_notes: Inhibition of PI3Kalpha
assay_metric: IC50

Query block: IC50 lookup needed for `CCOC(=O)c1cnn2c(-c3cccc(NC(=O)c4cccc(C(F)(F)F)c4)c3)ccnc12` , thanks.
Result block: > 10 µM

###

# tested_target: Proto-oncogene tyrosine-protein kinase Src (Homo sapiens)
# Sequence (P12931 2-536 limits assumed): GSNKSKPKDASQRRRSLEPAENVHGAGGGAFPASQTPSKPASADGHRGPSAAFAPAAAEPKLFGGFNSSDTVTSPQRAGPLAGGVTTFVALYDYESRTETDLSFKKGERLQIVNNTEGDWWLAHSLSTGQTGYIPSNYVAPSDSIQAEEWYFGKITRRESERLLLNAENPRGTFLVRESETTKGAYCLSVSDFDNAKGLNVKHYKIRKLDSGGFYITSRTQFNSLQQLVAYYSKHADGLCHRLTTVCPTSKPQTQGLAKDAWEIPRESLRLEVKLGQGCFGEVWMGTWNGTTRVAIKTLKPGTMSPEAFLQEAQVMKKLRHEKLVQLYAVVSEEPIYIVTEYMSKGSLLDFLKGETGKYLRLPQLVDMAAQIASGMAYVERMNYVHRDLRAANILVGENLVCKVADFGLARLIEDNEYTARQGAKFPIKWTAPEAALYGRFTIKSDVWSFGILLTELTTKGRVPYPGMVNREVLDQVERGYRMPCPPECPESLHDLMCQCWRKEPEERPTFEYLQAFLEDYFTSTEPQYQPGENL
assay_metric: IC50

Query block: Find IC50 (Proto-oncogene tyrosine-protein kinase Src (Homo sapiens)) for the entry `CCOC(=O)c1cnn2c(-c3cccc(NC(=O)c4cccc(C(F)(F)F)c4)c3)ccnc12`
Result block: > 10 µM

###

# System: HT-29
# protocol_notes: Growth inhibition of human HT-29 cells
# Type: functional, cell-based
assay_metric: pIC50
A value of pIC50 is the negative decimal logarithm of a concentration given in moles per litre.

Query block: pIC50 lookup needed for `CCOC(=O)c1cnn2c(-c3cccc(NC(=O)c4cccc(C(F)(F)F)c4)c3)ccnc12` , thanks.
Result block: 5.15

###

# tested_target: Serine/threonine-protein kinase B-raf (Homo sapiens, UniProt P15056)
# Sequence (P15056 whole entry): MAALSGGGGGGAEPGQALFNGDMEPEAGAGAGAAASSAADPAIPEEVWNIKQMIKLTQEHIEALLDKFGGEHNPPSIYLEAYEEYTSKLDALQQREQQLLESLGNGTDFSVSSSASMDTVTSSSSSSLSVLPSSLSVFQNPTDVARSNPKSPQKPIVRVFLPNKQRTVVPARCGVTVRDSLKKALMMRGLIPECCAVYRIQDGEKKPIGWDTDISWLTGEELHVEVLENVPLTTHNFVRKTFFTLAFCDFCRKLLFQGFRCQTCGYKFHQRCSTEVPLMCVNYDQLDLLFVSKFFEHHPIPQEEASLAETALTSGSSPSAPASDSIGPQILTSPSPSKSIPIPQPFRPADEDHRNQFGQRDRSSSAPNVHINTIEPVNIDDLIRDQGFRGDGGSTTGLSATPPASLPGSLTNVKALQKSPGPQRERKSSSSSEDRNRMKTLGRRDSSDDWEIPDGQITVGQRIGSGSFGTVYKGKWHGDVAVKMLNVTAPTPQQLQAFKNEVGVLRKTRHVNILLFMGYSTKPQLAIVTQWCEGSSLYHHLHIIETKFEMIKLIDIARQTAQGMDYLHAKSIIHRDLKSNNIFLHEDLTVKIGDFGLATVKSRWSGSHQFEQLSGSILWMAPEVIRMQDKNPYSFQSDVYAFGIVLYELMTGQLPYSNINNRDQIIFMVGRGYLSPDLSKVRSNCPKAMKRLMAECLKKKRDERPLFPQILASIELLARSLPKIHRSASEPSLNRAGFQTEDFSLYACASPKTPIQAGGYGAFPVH
# protocol_notes: Inhibition of human recombinant B-Raf expressed in Sf9 cells assessed as inhibition of Mek1 phosphorylation
assay_metric: IC50 (nM)
Give your result in nM as a bare value.

The following compounds have reported results that may help.
{"columns": ["line_notation", "IC50 (nM)"],
 "data": [
  ["COCCCNC(=O)c1cnn2c(-c3cccc(NC(=O)Nc4ccc(Cl)c(C(F)(F)F)c4)c3)ccnc12", 270],
  ["CCN(CC)CCNC(=O)c1cnn2c(-c3cccc(NC(=O)Nc4ccc(Cl)c(C(F)(F)F)c4)c3)ccnc12", 170],
  ["CCOC(=O)c1cnn2c(-c3cccc(NC(=O)c4ccc(OC)c(C(F)(F)F)c4)c3)ccnc12", 1030]
]}

--- query ---
Query block: IC50 lookup needed for `CCOC(=O)c1cnn2c(-c3cccc(NC(=O)Nc4cccc(C(F)(F)F)c4)c3)ccnc12` , thanks.
Result block: 540

###

# tested_target: Serine/threonine-protein kinase B-raf (Homo sapiens, UniProt P15056)
# protocol_notes: Inhibition of human recombinant B-Raf expressed in Sf9 cells assessed as inhibition of Mek1 phosphorylation
// returns Not met unless IC50 is strictly below 2000 nM, in which case Met

The following molecules have reported results that may help.
{"columns": ["line_notation", "cat"],
 "data": [
  ["CCOC(=O)c1cnn2c(-c3cccc(NC(=O)Nc4ccc(Cl)c(C(F)(F)F)c4)c3)ccnc12", "Met"],
  ["CCOC(=O)c1cnn2c(-c3cccc(NC(=O)c4cc(C(F)(F)F)ccc4C)c3)ccnc12", "Not met"],
  ["CCOC(=O)c1cnn2c(-c3cccc(NC(=O)c4cccc(C(F)(F)F)c4)c3)ccnc12", "Met"],
  ["CCOC(=O)c1cnn2c(-c3cccc(NC(=O)Nc4ccc(C(F)(F)F)cc4)c3)ccnc12", "Not met"]
]}

Query block: I wonder whether `CCOC(=O)c1cnn2c(-c3cccc(NC(=O)c4cccc(C#N)c4)c3)ccnc12` has IC50 below 2000 nM. Can you tell?
Result block: Not met

Query block: I wonder whether `CCOC(=O)c1cnn2c(-c3cccc(NC(=O)Nc4ccc(C)c(C(F)(F)F)c4)c3)ccnc12` has IC50 below 2000 nM. Can you tell?
Result block: Met

Query block: I wonder whether `CCOC(=O)c1cnn2c(-c3cccc(NC(=O)c4ccc(Cl)c(C(F)(F)F)c4)c3)ccnc12` has IC50 below 2000 nM. Can you tell?
Result block: Not met

Query block: I wonder whether `CCOC(=O)c1cnn2c(-c3cccc(NC(=O)c4cccc(OC(F)(F)F)c4)c3)ccnc12` has IC50 below 2000 nM. Can you tell?
Result block: Met

Query block: I wonder whether `O=C(Nc1cccc(-c2ccnc3c(C(=O)OCC(F)(F)F)cnn23)c1)c1cccc(C(F)(F)F)c1` has IC50 below 2000 nM. Can you tell?
Result block: Met
